Assign protein stability index to each entry below.
B1: C20orf112 (parent)
chain: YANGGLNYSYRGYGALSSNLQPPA

Variants of: B1
test_method_notes: protein stability index of a GFP-peptide fusion (GPS, HEK-293T) (PSI 1-6); higher = more stable;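 further: lentivirally expressed fusions sorted by FACS into six bins by GFP to DsRed ratio, PSI derived from sequencing read proportions per bin multiplied by bin number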
setup_conditions: c terminus: a fixed tail appended
Keep the answer to the number alone.

I would be grateful if you could share the reported protein stability index for YAHGGLNYSYRGYGALSSNLQPPA [N3H] .
1.55

Now give it for YANGGLNYSYKGYGALSSNLQPPA [R11K] too.
2.09

And what about the variant YANGGLNYSYRGYGALSYNLQPPA [S18Y] ?
1.67

And for YANGGLNYSRRGYGALSSNLQPPA [Y10R] ?
2.01

Same question for YANGGLNYSYRGYGADSSNLQPPA [L16D] please.
1.68

Then what about the variant YANGGLNYSYRGYGALSSNLQPMA [P23M] ?
2.3

Further, for YANGGLPYSYRGYGALSSNLQPPA [N7P] ?
2.47

Another variant: YANGGLNYSYRGYGDLSSNLQPPA [A15D]
2.07

And for YANGGLNYSYRGYGALSSNLQPNA [P23N] ?
2.17

Item: YANGGLNYSYRLYGALSSNLQPPA [G12L]
2.31

Also YANGGLNYSYRGYGALSSNLQKPA [P22K] ?
2.66

// query: YANGGLNYSYRGYGALSSNPQPPA [L20P]
1.88

Another variant to check: YANGGLNYSYRGYGALSSNLQCPA [P22C]
2.97

Would you kindly repeat that for YANGGLNYSYRGYGALSSNLPPPA [Q21P] ?
2.28

Here is the next variant: YANGGLNYSYRGHGALSSNLQPPA [Y13H]
2.01

Try the variant YANGGLNYSLRGYGALSSNLQPPA [Y10L]
2.3

Same question for YANGGLNYSYQGYGALSSNLQPPA [R11Q] please.
2.32

Another variant to look at: YANGGLNYSYRGYGAQSSNLQPPA [L16Q]
2.02

Can you handle YANGGKNYSYRGYGALSSNLQPPA [L6K] next?
1.57

Please answer likewise for YANGGLNYSYRGYGALSSMLQPPA [N19M]
1.88

YANGGLNYSYRDYGALSSNLQPPA [G12D] ?
1.42

YANGGLNYVYRGYGALSSNLQPPA [S9V] ?
2.6

Thanks! And YANGGLNYSYRGYGALSSNLQPPS [A24S] ?
1.82

Consider next the variant YANGGLNYSYRGKGALSSNLQPPA [Y13K] in the same way.
2.12

Same question for YANGGLNYSYRPYGALSSNLQPPA [G12P] please.
1.91

Param item: YANGDLNYSYRGYGALSSNLQPPA [G5D]
2.08

What about this variant? YANGGLNYSYRGYGALSSNLQPPV [A24V]
2.23

Now consider YANGGLNYSYRGYGQLSSNLQPPA [A15Q] .
1.77

Would you mind doing YANGGLNYSYRGYGALSSNLQQPA [P22Q] as well?
2

Next variant: YANGGLNYSYRGYGALPSNLQPPA [S17P]
1.9

Another variant to look at: YANGGLNYSYRGDGALSSNLQPPA [Y13D]
1.82

Also YANGGLNYSYRGYGALSSNLQPHA [P23H] ?
1.34

Similarly, YANGGLNYSYRGYGALSSNLQPVA [P23V] ?
1.84

Try YANGGLNYSYRGYGWLSSNLQPPA [A15W] next.
1.88

Here is the next variant: NANGGLNYSYRGYGALSSNLQPPA [Y1N]
3.08

Same question, YANGGLNYSYREYGALSSNLQPPA [G12E] this time
1.63

Try the variant YANGGLNYSSRGYGALSSNLQPPA [Y10S]
2.48
